- Study Target: Aldo-keto reductase family 1 member B1 (Rattus norvegicus)
- Assay Comment: Inhibition of rat kidney aldose reductase activity assessed as NADPH oxidation at 100 uM
Property Name: inhibition (%)

Guide cases for inhibition, answers given:
{"Smiles Data": "O=C1NC(=O)/C(=C/c2cccc(-c3cc(=O)c4ccccc4o3)c2)S1", "Unit Name": "%", "inhibition": 22.1}
{"Smiles Data": "O=C(O)CN1C(=O)S/C(=C\\c2cccc(-c3cc(=O)c4ccccc4o3)c2)C1=O", "Unit Name": "%", "inhibition": 86.6}
{"Smiles Data": "O=C1NC(=O)/C(=C/c2ccc3oc(-c4ccccc4)cc(=O)c3c2)S1", "Unit Name": "%", "inhibition": 64.9}

1 = O=C(O)CN1C(=O)S/C(=C\c2ccc3oc(-c4ccccc4)cc(=O)c3c2)C1=O
2 = CCOC(=O)CN1C(=O)S/C(=C\c2ccc3oc(-c4ccccc4)cc(=O)c3c2)C1=O
3 = CCOC(=O)CN1C(=O)S/C(=C\c2ccc(-c3cc(=O)c4ccccc4o3)cc2)C1=O
Request: Order the records by inhibition, with each subsequent value no larger than the one before. Give the order by naming the labels one after another as requested.
Result: 1, 2, 3
(1: 56.3%, 2: 14.4%, 3: 6.74%)
